# System: Recombinant mouse Gapdh (Mus musculus)
# Construct: GST (cleaved yes); made in house
# Sequence (P16858 whole entry): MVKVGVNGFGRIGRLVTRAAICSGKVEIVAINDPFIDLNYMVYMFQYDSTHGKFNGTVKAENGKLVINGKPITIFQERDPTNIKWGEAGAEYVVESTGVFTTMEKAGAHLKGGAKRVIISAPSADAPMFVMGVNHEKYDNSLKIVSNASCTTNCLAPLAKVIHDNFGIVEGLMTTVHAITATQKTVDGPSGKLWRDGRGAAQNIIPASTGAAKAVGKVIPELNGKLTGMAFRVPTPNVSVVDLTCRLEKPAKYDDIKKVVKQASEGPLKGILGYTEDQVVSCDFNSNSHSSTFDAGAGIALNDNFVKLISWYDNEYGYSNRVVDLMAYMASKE
# Assay name: Inhibition of recombinant Gapdh by adenine nucleotides (NAD reduction at 340 nm, 96-well format)
# Type: biochemical
Measured property: pKi
Give bare numbers, as −log10 of the molar value.

Record lookup: for Recombinant mouse Gapdh (Mus musculus), what pKi belongs to Nc1ncnc2c1ncn2[C@@H]1O[C@@H]2COP(=O)(O)O[C@H]2[C@H]1O ?
2.82

###

Would you mind telling me the reported pKi of each entry?
# System: truncated Gapdhs (tGapdhs; amino acids 106-438 of mouse Gapdhs) (Mus musculus)
# Construct: containing amino acids 106-438 of mouse Gapdhs; GST (cleaved yes); made in house
# Assay name: Inhibition of recombinant tGapdhs by adenine nucleotides (NAD reduction at 340 nm, 96-well format)
# Assay type: biochemical
# Assay setup: competitive inhibitors of NAD cofactor binding; read-out: calculated Ki for tGapdhs
One number for each entry, as −log10 of the molar value.

# Compound, Readout value
data = [
    ("Nc1ncnc2c1ncn2[C@@H]1O[C@H](COP(=O)(O)OP(=O)(O)OP(=O)(O)O)[C@@H](O)[C@H]1O [ATP, adenosine triphosphate]", 2.19),
    ("Nc1ncnc2c1ncn2[C@@H]1O[C@H](COP(=O)(O)O)[C@@H](O)[C@H]1O [AMP]", 2.50),
]

Fill in: pKi of Nc1ncnc2c1ncn2[C@@H]1O[C@H](COP(=O)(O)OP(=O)(O)O)[C@@H](O)[C@H]1O [ADP] is ___
2.40

###

# System: truncated Gapdhs (tGapdhs; amino acids 106-438 of mouse Gapdhs) (Mus musculus, UniProt Q64467)
# Construct: containing amino acids 106-438 of mouse Gapdhs; GST (cleaved yes); made in house
# Assay name: Inhibition of recombinant tGapdhs by adenine nucleotides (NAD reduction at 340 nm, 96-well format)
# Assay type: biochemical
# Assay setup: recombinant enzyme; result in words

# Compound structure, inhibition of tGapdhs
data = [
    ("O=c1ccn([C@@H]2O[C@H](COP(=O)(O)OP(=O)(O)OP(=O)(O)O)[C@@H](O)[C@H]2O)c(=O)[nH]1", "did not inhibit"),
    ("Nc1ncnc2c1ncn2[C@@H]1O[C@H](CO)[C@@H](O)[C@H]1O", "did not inhibit"),
]

###

Would you mind telling me the reported IC50 of each entry?
# System: truncated form of human GAPDHS (Mus musculus, UniProt Q64467)
# Construct: tGapdhs, amino acids 106-438; made in house; host or cells: E. coli K-12 strain DS112 (gapA-deficient)
# Sequence (Q64467 108-440): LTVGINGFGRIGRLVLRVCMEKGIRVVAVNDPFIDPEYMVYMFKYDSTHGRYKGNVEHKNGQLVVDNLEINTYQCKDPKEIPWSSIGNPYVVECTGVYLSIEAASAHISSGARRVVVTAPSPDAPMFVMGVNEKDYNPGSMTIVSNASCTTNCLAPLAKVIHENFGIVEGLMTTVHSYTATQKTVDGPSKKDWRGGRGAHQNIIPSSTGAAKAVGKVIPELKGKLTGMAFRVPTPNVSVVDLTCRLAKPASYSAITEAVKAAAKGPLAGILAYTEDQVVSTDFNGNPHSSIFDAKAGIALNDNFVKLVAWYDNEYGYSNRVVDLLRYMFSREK
# Assay name: Inhibition of dehydrogenase activity of recombinant truncated GAPDHS (NADH accumulation at 340 nm);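 note: recombinant enzyme (1 µg) in glycine–phosphate–EDTA buffer pH 8.9, inhibitors tested from 1 µM to 3 mM, activity relative to DMSO-only controls taken as 100%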
# Format: biochemical
# Assay setup: Table 9; 1 hour preincubation at 4° C.; 0.5 mM NAD, 0.5 mM glyceraldehyde-3-phosphate; read-out: IC50 GAPDHS
Give bare numbers, in µM.

Please review the following examples before continuing.
# Compound structure, Unit abbreviation, IC50
measured = [
    ("Nc1nonc1-c1nc2ccccc2n1CC(=O)N/N=C\\c1cc2c(cc1[N+](=O)[O-])OCO2", "µM", 2000),
    ("O=C(NNc1ccc(S(=O)(=O)Nc2ccccc2)cc1[N+](=O)[O-])Nc1cccc(C(F)(F)F)c1", "µM", 1750),
    ("COc1cc(C=NNC(=O)Cn2cnc3c(=O)n(C)c(=O)n(C)c32)cc([N+](=O)[O-])c1O", "µM", 150),
]

Next compound, IC50 to be filled in.
Fill in: IC50 of CC(CC(=O)Nc1ccc(Cl)c(Cl)c1)=NNC(=O)c1cc2ccccc2cc1O is ___
5000

Where do these numbers come from? They come from patent US20050266515A1.
